Target: PKR(wt) (Homo sapiens)
Sequence (P30613 whole entry): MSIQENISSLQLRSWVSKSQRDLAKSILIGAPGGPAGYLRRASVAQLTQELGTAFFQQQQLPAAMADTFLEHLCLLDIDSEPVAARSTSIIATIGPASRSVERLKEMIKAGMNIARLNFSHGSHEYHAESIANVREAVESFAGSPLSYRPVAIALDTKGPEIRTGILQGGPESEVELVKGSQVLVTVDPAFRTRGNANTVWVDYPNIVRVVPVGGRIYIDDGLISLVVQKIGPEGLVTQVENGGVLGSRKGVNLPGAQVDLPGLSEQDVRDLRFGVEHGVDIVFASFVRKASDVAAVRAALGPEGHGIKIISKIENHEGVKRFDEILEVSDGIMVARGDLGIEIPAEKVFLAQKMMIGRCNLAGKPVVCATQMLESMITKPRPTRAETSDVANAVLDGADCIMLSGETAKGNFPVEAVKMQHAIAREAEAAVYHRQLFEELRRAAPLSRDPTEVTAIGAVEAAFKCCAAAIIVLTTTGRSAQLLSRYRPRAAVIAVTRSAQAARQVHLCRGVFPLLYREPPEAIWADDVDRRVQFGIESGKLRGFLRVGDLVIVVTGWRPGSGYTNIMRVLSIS
Test: Luminescence Assay Protocol (Kinase Glo Plus), PKR(Wt/without FBP)
Assay type: biochemical
Conditions: without FBP, compound 1.54 μM, read-out: I - AC50 LUM KGP woFBP % Fold @ 1.54 μM mean
measured endpoint: activation at 1.54 µM

{"columns": ["compound", "activation at 1.54 µM"],
 "data": [
  ["O=C([C@@H](CO)c1ccccc1)N1CC2=C(C1)CN(S(=O)(=O)c1cnc3c(c1)OCCO3)C2 (single isomer, unassigned)", "75 to 250%"],
  ["O=C(C1COc2ccccc21)N1CC2=C(C1)CN(S(=O)(=O)c1ccc3ncsc3c1)C2 (centres unmarked)", "250 to 500%"],
  ["CC(C)(CO)C(=O)N1CC2=C(C1)CN(S(=O)(=O)c1ccc3occc3c1)C2", "75 to 250%"],
  ["C[C@@H](O)[C@@H](C(=O)N1CC2=C(C1)CN(S(=O)(=O)c1ccc(OC(F)F)cc1)C2)c1ccccc1 (racemic)", "250 to 500%"],
  ["O=C(C(CO)c1ccccc1)N1CC2=C(C1)CN(S(=O)(=O)c1ccc3occc3c1)C2 (centres unmarked)", "250 to 500%"],
  ["O=C([C@H](CO)c1ccccc1)N1CC2=C(C1)CN(S(=O)(=O)c1cnc3c(c1)OCCO3)C2 (single isomer, unassigned)", "75 to 250%"],
  ["C[C@H](O)CC(=O)N1CC2=C(C1)CN(S(=O)(=O)c1ccc3occc3c1)C2", "75 to 250%"],
  ["CC(C)(O)[C@@H](C(=O)N1CC2=C(C1)CN(S(=O)(=O)c1ccc(OC(F)F)cc1)C2)c1ccccc1", "75 to 250%"]
]}

So what's the measured activation at 1.54 µM for this one? CC(CO)(CO)C(=O)N1CC2=C(C1)CN(S(=O)(=O)c1ccc3occc3c1)C2 75 to 250%

So what's the measured activation at 1.54 µM for this one? CC(C)(CO)C(=O)N1CC2=C(C1)CN(S(=O)(=O)c1ccc(OC(F)F)cc1)C2 75 to 250%

So what's the measured activation at 1.54 µM for this one? O=C(C(CO)c1ccccn1)N1CC2=C(C1)CN(S(=O)(=O)c1cnc3c(c1)OCCO3)C2 (single isomer, unassigned) 75 to 250%

----------
Molecular target: PKR(G332S) (Homo sapiens, UniProt P30613, G332S)
Sequence (P30613 whole entry G332S): as the sequence (P30613 whole entry) above, with G332S counted along it
Assay: Luminescence Assay Protocol (Kinase Glo Plus), PKR(G332S/with FBP)
Format: biochemical
Conditions: PKRG332S, with FBP, gmean; read-out: A - AC50 LUM KGP FBP AC50 μM gmean
Protocol: Example 47: PKR(Wt/without FBP), PKR(G332S/with FBP), PKR(R510Q/without FBP) The phosphorylation of Adenosine-5′-diphosphate (ADP) by various mutants of PKR was determined by the Kinase Glo Plus Assay (Promega) in the presence or absence of FBP [D-Fructose-1,6-diphosphate; BOC Sciences, CAS: 81028-91-3] as follows. […] Enzyme and PEP [Phospho(enol) pyruvic acid] were added at 2× to all wells of an assay-ready plate containing serial dilutions of test compounds or DMSO vehicle. […]
Documented AC50 across a set of compounds

{"columns": ["compound", "target under test", "AC50"],
 "data": [
  ["CN1CCOc2ccc(S(=O)(=O)N3CC4=C(CN(C(=O)C(CO)c5ccccc5)C4)C3)cc21 (stereo not shown)", "PKR(G332S) (Homo sapiens, UniProt P30613, G332S)", "> 40 µM"],
  ["O=C([C@H](CO)c1ccccc1)N1CC2=C(C1)CN(S(=O)(=O)c1ccc3ncsc3c1)C2", "PKR(G332S) (Homo sapiens, UniProt P30613, G332S)", "≤ 0.1 µM"],
  ["O=C(C1COc2ccccc21)N1CC2=C(C1)CN(S(=O)(=O)c1ccc3ncsc3c1)C2 (stereo not shown)", "PKR(G332S) (Homo sapiens, UniProt P30613, G332S)", "0.1 to 1 µM"],
  ["CC1(C)CNc2cc(S(=O)(=O)N3CC4=C(CN(C(=O)[C@H](CO)c5ccccc5)C4)C3)ccc2O1", "PKR(G332S) (Homo sapiens, UniProt P30613, G332S)", "> 40 µM"]
]}

So what's the measured AC50 for this one? O=C(C1CCCOC1)N1CC2=C(C1)CN(S(=O)(=O)c1cnc3c(c1)OCCO3)C2 (single isomer, unassigned) [Example 6] > 40 µM

So what's the measured AC50 for this one? O=C(C1CCCOC1)N1CC2=C(C1)CN(S(=O)(=O)c1ccc3c(c1)NCCO3)C2 (single isomer, unassigned) [Example 34] 0.1 to 1 µM

So what's the measured AC50 for this one? O=C([C@H](CO)c1ccccc1)N1CC2=C(C1)CN(S(=O)(=O)c1ccc(OC(F)F)cc1)C2 ≤ 0.1 µM
